Target: MurC (UniProt C4ZRI6)
Sequence (C4ZRI6 whole entry, looked up): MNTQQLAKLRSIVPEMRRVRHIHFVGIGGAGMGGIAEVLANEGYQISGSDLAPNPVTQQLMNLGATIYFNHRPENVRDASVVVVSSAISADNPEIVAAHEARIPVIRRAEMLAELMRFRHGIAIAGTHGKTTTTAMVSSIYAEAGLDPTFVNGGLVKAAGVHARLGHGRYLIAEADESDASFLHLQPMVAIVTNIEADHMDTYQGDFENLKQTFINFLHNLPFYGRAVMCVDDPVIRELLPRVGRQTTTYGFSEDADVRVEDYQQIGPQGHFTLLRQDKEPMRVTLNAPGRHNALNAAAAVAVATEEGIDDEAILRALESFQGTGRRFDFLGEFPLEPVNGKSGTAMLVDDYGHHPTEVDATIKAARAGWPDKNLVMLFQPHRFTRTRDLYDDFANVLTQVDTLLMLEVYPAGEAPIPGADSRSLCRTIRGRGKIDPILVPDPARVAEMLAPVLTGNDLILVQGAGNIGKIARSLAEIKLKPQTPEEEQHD
Experiment: relative enzymatic activity vs untreated control (fraction); higher = less inhibition
Details: 100 µM; incubation time: 2 h at 37 C
Returns one of 1.0 or 0.0; 1.0 when relative enzymatic activity is >= 1.

Known results for compounds:
CC1CN(c2c(F)c(F)c3c(=O)c(C(=O)O)cn(C4CC4)c3c2F)CC(C)N1 (stereo unspecified); 0.0
CC(C)[C@@H](CC[C@@H](C)[C@H]1CC[C@H]2[C@@H]3[C@H](O)C[C@H]4C[C@@H](NCCCNCCCCNCCCN)CC[C@]4(C)[C@H]3CC[C@]12C)OS(=O)(=O)O; 1.0
CN1CCN(c2c(F)cc3c(=O)c(C(=O)O)cn4c3c2OCN4C)CC1; 0.0

// query For this compound, is measured relative enzymatic activity 1 or higher? NC(=O)N/N=C/c1ccc([N+](=O)[O-])o1
// result 1.0

// query Decide: relative enzymatic activity of CN1CCN(c2c(F)cc3c(=O)c(C(=O)O)cn4c3c2SCC4)CC1 >= 1?
// result 0.0

// query Could you verify whether the entry NC[C@H]1O[C@H](O[C@H]2[C@H](O)[C@@H](O[C@H]3O[C@H](CO)[C@@H](O)[C@H](N)[C@H]3O)[C@H](N)C[C@@H]2N)[C@H](N)[C@@H](O)[C@@H]1O shows relative enzymatic activity of no less than 1?
// result 0.0
